- Assay Details: endothelial E-selectin expression blockers – imaging, HUVEC, immunofluorescence, MLSMR starter and 10KST1 sets, primary screen (AID 487);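 note: 100% = median nuclei count of all wells on the same plate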
- Applied Conditions: HUVEC TNFalpha-induced E-selectin immunofluorescence imaging, at 2 µM; measured here: cell number, toxicity
Endpoint: nuclei count (%)
Your answer should be a plain number; it is taken to be in %.

> print(dat)
                                  compound      endpoint  measured.number
1  Cc1nnc(SCC(=O)Nc2ccc3c4c(cccc24)CC3)n1C  nuclei count              108
2  CCCc1cc(N2CCCC2)n2nc(C)c(-c3ccccc3)c2n1  nuclei count              122

input: Consider the compound CCn1c(=O)cc(OCC(=O)Nc2cc(C)ccn2)c2ccccc21 . State its measured nuclei count.
output: 126

input: Retrieve nuclei count measured for O=C(Nc1ccccc1-c1nc2ccccc2o1)c1ccc2c(c1)OCCO2 and print it.
output: 87.4

input: Report nuclei count, nothing else, for this compound: COc1ccc(-c2cc(C(=O)Nc3ccc(C)cc3)no2)cc1
output: 103

---

- Assay Details: reduction of polyQ htt aggregates in cells – imaging, exon1htt(103Q)mCFP cells, high-content imaging, primary screen (AID 483);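 note: compound exposure lasted 3 days before fixation; percent of the per-plate median nuclei count of sample wells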
- Applied Conditions: exon1htt(103Q)mCFP cell line, aggregate imaging, at 2 µM; measured here: cell count, toxicity
Endpoint: nuclei count (%)
Return type: number; implicit unit %.

> print(dat)
                                   compound  measured.number
1            O=C(NCCSCc1ccco1)Nc1cccc(Cl)c1             99.9
2  N#CC1=C(SCc2ccccc2)NC(=O)C(C#N)C12CCCC2 (centres undefined)              116
3  CC1(C)NC(=O)N(CC(O)CN(Cc2ccccc2)Cc2ccccc2)C1=O (centres undefined)             84.4
4                C#CCSc1nc(-c2cccs2)ccc1C#N             92.8
5        NC(=O)c1c(NC(=O)Cc2cccs2)sc2c1CCC2              109
6  CCOC(=O)c1sc(NC(=O)COC(=O)Cn2cnc3ccccc32)c(C(=O)OCC)c1C             90.6

input: Respond only with nuclei count recorded for O=C(O)C1CC(=O)N(c2ccc(OCc3ccccc3Cl)cc2)C1 (centres undefined)
output: 97.1

input: Name the recorded nuclei count of the compound listed here: Cc1c(C)c2ccc(OC3CCCCC3=O)cc2oc1=O (centres undefined)
output: 120

---

NADPH fluorescence slope values, listed per item
- Target Desc: Voltage-gated potassium channel subunit beta-2 (Rattus norvegicus)
- Assay Details: enhancers of rat Kvbeta2 NADPH turnover – biochemical, NADPH fluorescence, primary screen (AID 623);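 note: fluorescence intensity change per second fitted from 20 to 320 s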
- Applied Conditions: Recombinant KvBeta, NADPH fluorescence decrease slope, 10 min; at 10 µM; stronger effect = lower value
Output: the number by itself.

Use the examples below as a reference point.
> print(dat)
                                   compound                  endpoint  measured.number
1  O=C(O)COc1cccc(NC(=O)C2CCCO2)c1 (centres undefined)  NADPH fluorescence slope          1.1e-05
2         Cc1cnc(C(=O)Nc2ccccc2-n2cccc2)cn1  NADPH fluorescence slope         -5.7e-05
3     O=C(CN1C(=O)CCSc2ccccc21)Nc1ccc(F)cc1  NADPH fluorescence slope          4.1e-05
4  O=C(Nc1ccc2oc(Cc3ccc(Cl)cc3)nc2c1)c1cccnc1  NADPH fluorescence slope         -2.3e-06
5  CCOC(=O)c1ccc(CNC(=O)C(Cc2c[nH]c3ccccc23)NC(C)=O)o1 (centres undefined)  NADPH fluorescence slope         -4.9e-06

input: Hello, please tell me recorded NADPH fluorescence slope for this one: O=C(CS(=O)(=O)Cc1ccccc1)N1CCc2ccccc2C1
output: -4.4e-05

input: Supply recorded NADPH fluorescence slope for CCCNC(=O)C1=C(C)C(=O)OC12CCC(C)CC2 (centres undefined) here.
output: 1.9e-05

---

A collection of compounds and their measured cell count
- Assay Details: inhibitors of TNFa-induced NFkB p65 translocation, primary screen, imaging, HUVEC, MLSMR starter and 10KST1 sets (AID 438);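 note: compound added about 3h40 before a 20 min TNFalpha stimulation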
- Applied Conditions: HUVEC TNFa-induced p65 nuclear translocation; measured here: nuclei count (cytotoxicity indicator), at 2.08 µM

Here's what some known entries look like.
> print(dat)
                                   compound  result
1  O=C(C1CCCO1)N1CCN(C(c2ccccc2)c2ccccc2)CC1 (centres undefined)     412
2     CC1=NC(Nc2nc(C)c3ccccc3n2)=NC(C)(C)C1     391
3  OCCNCC(O)Cn1ccc2ccccc21 (centres undefined)     410
4  Cc1cc(NC(=O)C23CCC(C)(C(=O)O2)C3(C)C)no1 (centres undefined)     406
5   O=C(Nc1ccc2c(c1)OCCO2)c1cnc2n(c1=O)CCS2     550
6  CCN(C(=O)c1cc2cc3ccc(C)cc3nc2o1)c1ccc(OC)cc1     225
7  COc1ccc(OC)c(-n2nnnc2SCC(=O)NCc2ccc3c(c2)OCO3)c1     324
8  COc1ccc(CC(=O)OCC(=O)NC(=O)NC2CCCCC2)cc1     505

input: Report cell count for COC(=O)C1=C(C)OC(N)=C(C#N)C1c1ccccc1 (centres undefined)
output: 428

input: Provide one value: measured cell count of COc1nc(Oc2ccc(=O)n(C)n2)nc(N(C)C)n1
output: 420

---

- Target Desc: Voltage-gated potassium channel subunit beta-2 (Rattus norvegicus) (UniProt P62483)
- Sequence (P62483 whole entry, looked up): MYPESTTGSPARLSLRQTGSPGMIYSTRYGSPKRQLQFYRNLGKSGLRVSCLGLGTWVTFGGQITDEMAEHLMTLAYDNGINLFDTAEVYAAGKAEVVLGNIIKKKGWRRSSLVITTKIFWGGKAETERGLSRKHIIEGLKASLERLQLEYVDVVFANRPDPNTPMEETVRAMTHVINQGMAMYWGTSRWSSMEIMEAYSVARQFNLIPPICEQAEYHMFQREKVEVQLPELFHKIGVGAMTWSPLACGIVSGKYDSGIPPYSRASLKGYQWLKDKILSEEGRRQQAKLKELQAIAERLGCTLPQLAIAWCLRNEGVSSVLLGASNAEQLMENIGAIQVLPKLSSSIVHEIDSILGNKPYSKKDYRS
- Assay Details: inhibitors of rat Kvbeta2 reductase activity – biochemical, NADPH fluorescence, primary screen (AID 622);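 note: slope of raw intensity against log time taken from 70 to 1610 s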
- Applied Conditions: recombinant KvBeta, 4-cyanobenzaldehyde reduction, at 10 µM, stronger effect = higher value
Endpoint: fluorescence slope
Lab note: write the figure by itself, no unit.

> print(dat)
                        molecule                               target.desc            endpoint  measured.number
1  O=C(Oc1ccc2c(c1)CCC2)N1CCOCC1  Voltage-gated potassium channel subunit beta-2 (Rattus norvegicus) (UniProt P62483)  fluorescence slope           -0.393

input: Respond only with fluorescence slope recorded for Cc1ccc(Nc2nc(N)nc(CN3CCN(Cc4ccc5c(c4)OCO5)CC3)n2)cc1
output: -0.367

input: Give the measured fluorescence slope for O=C1COc2ccc(C(=O)COC(=O)CCc3ccc(S(=O)(=O)N4CCOCC4)cc3)cc2N1
output: -0.37

input: Supply measured fluorescence slope of COc1cc(OC)cc(C(=O)N2CCN(C(=O)c3ccc(OC)c(OC)c3)CC2)c1 in your reply.
output: -0.603

input: Give recorded fluorescence slope. O=S(=O)(c1ccc2c(c1)OCCO2)N1CCC(n2nnc3cc(F)ccc32)CC1
output: -0.5

input: # return recorded fluorescence slope for input COC(=O)c1ccccc1NC(=O)c1cnc2sccn2c1=O
output: -0.369

input: Please report fluorescence slope for the following molecule: O=C(NCc1ccccn1)Nc1ccc2c(c1)OCO2
output: -0.459

input: Find the measured fluorescence slope of CC(=O)Nc1cc(NC(C)=O)cc(C(=O)OCC(=O)N2CC(C)OC(C)C2)c1 (centres undefined) and report it.
output: -0.299

input: Quick one: give measured fluorescence slope for Cc1ccc2nc(-c3ccc(S(=O)(=O)N4CCOCC4)cc3)cn2c1
output: -0.0874

---

- Assay Details: inhibitors of TNFa-induced NFkB p65 translocation, primary screen, imaging, HUVEC, MLSMR starter and 10KST1 sets (AID 438);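 note: compound added about 3h40 before a 20 min TNFalpha stimulation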
- Applied Conditions: HUVEC TNFa-induced p65 nuclear translocation; measured here: nuclei count (cytotoxicity indicator), at 2.08 µM
Endpoint: cell count
Could you respond with only the numeric value?

Worked examples follow.
> print(dat)
                                   molecule    endpoint  measured.number
1     COc1cc(NC(=O)CC(C)C)ccc1NC(=O)c1ccco1  cell count              612
2  O=C(CSc1nc2ccccc2c(=O)n1Cc1ccco1)NCc1ccccc1  cell count              399
3  COc1cc2c(cc1OC)C(c1ccccc1O)N(C1CC(=O)N(c3ccccc3)C1=O)CC2 (centres undefined)  cell count              409

input: For the molecule CCOC(=O)Cc1csc(NC(=O)c2cccc(OC)c2)n1 , report cell count.
output: 395

---

As shown below, each of these molecules has a reported fluorescence slope value.
- Target Desc: Voltage-gated potassium channel subunit beta-2 (Rattus norvegicus) (UniProt P62483)
- Assay Details: inhibitors of rat Kvbeta2 reductase activity – biochemical, NADPH fluorescence, primary screen (AID 622);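 note: slope of raw intensity against log time taken from 70 to 1610 s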
- Applied Conditions: recombinant KvBeta, 4-cyanobenzaldehyde reduction, at 10 µM, stronger effect = higher value
Respond using a number only.

Reference set (3 entries):
> print(dat)
                                   molecule                               target.desc  measured.number
1      Cc1ccccc1CN1CCN(C(=O)c2cccc(F)c2)CC1  Voltage-gated potassium channel subunit beta-2 (Rattus norvegicus) (UniProt P62483)           -0.411
2     Cc1cc(=O)c2n(Cc3ccccc3Cl)nc[n+]2[nH]1  Voltage-gated potassium channel subunit beta-2 (Rattus norvegicus) (UniProt P62483)           -0.397
3  CCn1c(SCC(=O)NCc2ccco2)nc2c(c1=O)SC(C)C2 (centres undefined)  Voltage-gated potassium channel subunit beta-2 (Rattus norvegicus) (UniProt P62483)             -0.4

input: Give fluorescence slope for O=C(NCCN1CCCCCC1)c1ccc(N2CCCC2=O)cc1
output: -0.406
